Cited source for all entries: ChEMBL document CHEMBL3885881

Organism: Rattus norvegicus
protocol summary: DrugMatrix - Regimen: Daily Repeat
Format: toxicity, organism-based, Sprague-Dawley
Set-up: regimen Daily Repeat, gender Male, age 6-8 weeks
condition description: in vivo, po, 0 mg/kg, 72 h, tissue Plasma, route oral GAVAGE, dose level Control, time 3 day, […]
observation type: LACTATE DEHYDROGENASE (u/L)

                                   molecule  recorded_value
0                CC(C)(Oc1ccc(Cl)cc1)C(=O)O          484.67
1        OC(Cn1cncn1)(Cn1cncn1)c1ccc(F)cc1F           271.5
2                  O=NN(CCCl)C(=O)NC1CCCCC1           89.33
3               CN(C)c1nc(N(C)C)nc(N(C)C)n1           89.33
4          Cc1noc(NS(=O)(=O)c2ccc(N)cc2)c1C           198.5
5  Cc1ccc(-c2cc(C(F)(F)F)nn2-c2ccc(S(N)(=O)=O)cc2)cc1           271.5
6  CC(C)C(=O)Nc1ccc([N+](=O)[O-])c(C(F)(F)F)c1 [FLUTAMIDE]          101.83
